system: HeLa; assay: cell viability (CellTiter-Glo) relative to median of lowest-dilution wells of all drugs (fraction); higher = more viable cells; conditions: drug concentration (unit not stated): 0.37; genotype: control (DDX11 wild type)
Where a name gives a salt, the structure may show the parent alone.
// returns f unless cell viability is strictly below 0.8, in which case t

{"compound": "CC(=O)O[C@H]1C(=O)[C@@]2(C)[C@H]([C@H](OC(=O)c3ccccc3)[C@]3(O)C[C@H](OC(=O)[C@H](O)[C@@H](NC(=O)c4ccccc4)c4ccccc4)C(C)=C1C3(C)C)[C@]1(OC(C)=O)CO[C@@H]1C[C@@H]2O", "assayTarget": "HeLa", "categoryLabel": "t"}
{"compound": "CC(=O)c1c(C)c2cnc(Nc3ccc(N4CCNCC4)cn3)nc2n(C2CCCC2)c1=O", "assayTarget": "HeLa", "categoryLabel": "f"}
{"compound": "Nc1ccn([C@@H]2O[C@H](CO)[C@@H](O)[C@@H]2O)c(=O)n1", "assayTarget": "HeLa", "categoryLabel": "f"}
{"compound": "Nc1ncn([C@H]2C[C@H](O)[C@@H](CO)O2)c(=O)n1", "assayTarget": "HeLa", "categoryLabel": "f"}
{"compound": "O=C(CCCCCCC(=O)Nc1ccccc1)NO [Vorinostat (SAHA)]", "assayTarget": "HeLa", "categoryLabel": "f"}
{"compound": "Cc1cc(Nc2cc(N3CCN(C)CC3)nc(Sc3ccc(NC(=O)C4CC4)cc3)n2)n[nH]1", "assayTarget": "HeLa", "categoryLabel": "f"}
{"compound": "CC(C)C[C@H](NC(=O)[C@H](CCc1ccccc1)NC(=O)CN1CCOCC1)C(=O)N[C@@H](Cc1ccccc1)C(=O)N[C@@H](CC(C)C)C(=O)[C@@]1(C)CO1", "assayTarget": "HeLa", "categoryLabel": "t"}
{"compound": "COCC[n+]1c2c(n(Cc3cnccn3)c1C)C(=O)c1ccccc1C2=O [YM155 (Sepantronium bromide)]", "assayTarget": "HeLa", "categoryLabel": "t"}
{"compound": "CCn1nc(C2CCN(C(=O)CCO)CC2)nc1-c1cnc(N)c(-c2nnc(C(C)(C)C)o2)n1", "assayTarget": "HeLa", "categoryLabel": "f"}
{"compound": "CCN(CCO)CCCOc1ccc2c(Nc3cc(CC(=O)Nc4cccc(F)c4)[nH]n3)ncnc2c1", "assayTarget": "HeLa", "categoryLabel": "f"}
{"compound": "O=C(O)CCCc1ccc(N(CCCl)CCCl)cc1", "assayTarget": "HeLa", "categoryLabel": "f"}
{"compound": "Cc1sc2c(c1C)C(c1ccc(Cl)cc1)=N[C@@H](CC(=O)OC(C)(C)C)c1nnc(C)n1-2 [(+)-JQ-1]", "assayTarget": "HeLa", "categoryLabel": "f"}
{"compound": "C=CCn1c(=O)c2cnc(Nc3ccc(N4CCN(C)CC4)cc3)nc2n1-c1cccc(C(C)(C)O)n1", "assayTarget": "HeLa", "categoryLabel": "f"}
{"compound": "O=C1c2c(O)ccc(O)c2C(=O)c2c(NCCNCCO)ccc(NCCNCCO)c21 [Mitoxantrone Hydrochloride]", "assayTarget": "HeLa", "categoryLabel": "t"}
{"compound": "CO[C@@H](C(=O)N1Cc2[nH]nc(NC(=O)c3ccc(N4CCN(C)CC4)cc3)c2C1)c1ccccc1", "assayTarget": "HeLa", "categoryLabel": "f"}

* * *

# Lookup of reported cell viability keyed by entry
system: HeLa; test: cell viability (CellTiter-Glo) relative to median of lowest-dilution wells of all drugs (fraction); higher = more viable cells; conditions: drug concentration (unit not stated): 0.37; genotype: control (DDX11 wild type)
Structures can show the parent of a compound that is named as a salt.

{"compound": "CC(=O)Nc1cccc(-n2c(=O)n(C3CC3)c(=O)c3c(Nc4ccc(I)cc4F)n(C)c(=O)c(C)c32)c1", "assayTarget": "HeLa", "cell viability": 0.976}
{"compound": "O=C(O)C1(C(=O)O)CCC1.[NH2-].[NH2-].[Pt+2]", "assayTarget": "HeLa", "cell viability": 1.03}
{"compound": "O=c1[nH]c(=O)n([C@H]2C[C@H](O)[C@@H](CO)O2)cc1F", "assayTarget": "HeLa", "cell viability": 0.952}
{"compound": "CC[C@@]1(O)C(=O)OCc2c1cc1n(c2=O)Cc2cc3c(CN(C)C)c(O)ccc3nc2-1 [Topotecan HCl]", "assayTarget": "HeLa", "cell viability": 0.0738}
{"compound": "C[C@@H](Nc1cc(F)cc(F)c1)c1cc(C(=O)N(C)C)cc2c(=O)cc(N3CCOCC3)oc12", "assayTarget": "HeLa", "cell viability": 0.952}
{"compound": "CCCCCCNC(=O)n1cc(F)c(=O)[nH]c1=O", "assayTarget": "HeLa", "cell viability": 1.05}
{"compound": "O=c1cc(N2CCOCC2)oc2c(-c3cccc4c3sc3ccccc34)cccc12", "assayTarget": "HeLa", "cell viability": 0.989}
{"compound": "COc1cccc2c1C(=O)c1c(O)c3c(c(O)c1C2=O)C[C@@](O)(C(=O)CO)C[C@@H]3O[C@H]1C[C@H](N)[C@H](O)[C@H](C)O1", "assayTarget": "HeLa", "cell viability": 0.679}
{"compound": "O=c1[nH]c(=O)n(C2CCCO2)cc1F (stereo unspecified)", "assayTarget": "HeLa", "cell viability": 1.01}
{"compound": "O=c1[nH]cc(F)c(=O)[nH]1", "assayTarget": "HeLa", "cell viability": 1.03}
{"compound": "O=C(c1cc(Cc2n[nH]c(=O)c3ccccc23)ccc1F)N1CCN(C(=O)C2CC2)CC1", "assayTarget": "HeLa", "cell viability": 0.959}

* * *

test system: HeLa; test: cell viability (CellTiter-Glo) relative to median of lowest-dilution wells of all drugs (fraction); higher = more viable cells; details: drug concentration (unit not stated): 30; genotype: DDX11 knockout
quantityKind: cell viability

{"molecule": "CC(=O)c1c(C)c2cnc(Nc3ccc(N4CCNCC4)cn3)nc2n(C2CCCC2)c1=O [Palbociclib]", "assayTarget": "HeLa", "quantityKind": "cell viability", "reportedValue": 0.658}
{"molecule": "CC[C@H](CO)Nc1nc(NCc2ccccc2)c2ncn(C(C)C)c2n1 [Seliciclib (Roscovitine)]", "assayTarget": "HeLa", "quantityKind": "cell viability", "reportedValue": 0.577}
{"molecule": "NC(=O)c1ccc(I)c([N+](=O)[O-])c1 [Iniparib (BSI-201)]", "assayTarget": "HeLa", "quantityKind": "cell viability", "reportedValue": 0.839}
{"molecule": "O=C(O)C1(C(=O)O)CCC1.[NH2-].[NH2-].[Pt+2] [Carboplatin]", "assayTarget": "HeLa", "quantityKind": "cell viability", "reportedValue": 0.0472}
{"molecule": "Cc1cc(Nc2cc(N3CCN(C)CC3)nc(Sc3ccc(NC(=O)C4CC4)cc3)n2)n[nH]1 [Tozasertib (VX-680)]", "assayTarget": "HeLa", "quantityKind": "cell viability", "reportedValue": 0.659}
{"molecule": "O=c1cc(-c2cccc3c2Sc2ccccc2S3)oc(N2CCOCC2)c1", "assayTarget": "HeLa", "quantityKind": "cell viability", "reportedValue": 0.633}

* * *

tested on: HeLa; test: cell viability (CellTiter-Glo) relative to median of lowest-dilution wells of all drugs (fraction); higher = more viable cells; details: drug concentration (unit not stated): 0.37; genotype: DDX11 knockout
Listed below: cell viability values for each entry.
quantityKind: cell viability

{"molecule": "COc1cc2c(cc1O)CCN[C@]21CS[C@@H]2c3c(OC(C)=O)c(C)c4c(c3[C@H](COC1=O)N1[C@@H]2[C@H]2c3c(cc(C)c(OC)c3O)C[C@@H]([C@@H]1O)N2C)OCO4 [Trabectedin (Yondelis)]", "assayTarget": "HeLa", "quantityKind": "cell viability", "reportedValue": 0.987}
{"molecule": "COc1cccc2c1C(=O)c1c(O)c3c(c(O)c1C2=O)C[C@@](O)(C(=O)CO)C[C@@H]3O[C@H]1C[C@H](N)[C@H](O)[C@H](C)O1 [Doxorubicin (Adriamycin)]", "assayTarget": "HeLa", "quantityKind": "cell viability", "reportedValue": 0.328}
{"molecule": "CCn1nc(C2CCN(C(=O)CCO)CC2)nc1-c1cnc(N)c(-c2nnc(C(C)(C)C)o2)n1 [AZD8835]", "assayTarget": "HeLa", "quantityKind": "cell viability", "reportedValue": 0.908}
{"molecule": "Nc1nc(F)nc2c1ncn2[C@@H]1O[C@H](COP(=O)(O)O)[C@@H](O)[C@@H]1O [Fludarabine Phosphate (Fludara)]", "assayTarget": "HeLa", "quantityKind": "cell viability", "reportedValue": 1.02}
{"molecule": "CC(=O)O[C@H]1C(=O)[C@@]2(C)[C@H]([C@H](OC(=O)c3ccccc3)[C@]3(O)C[C@H](OC(=O)[C@H](O)[C@@H](NC(=O)c4ccccc4)c4ccccc4)C(C)=C1C3(C)C)[C@]1(OC(C)=O)CO[C@@H]1C[C@@H]2O [Paclitaxel (Taxol)]", "assayTarget": "HeLa", "quantityKind": "cell viability", "reportedValue": 0.2}
{"molecule": "CCN(CCO)CCCOc1ccc2c(Nc3cc(CC(=O)Nc4cccc(F)c4)[nH]n3)ncnc2c1 [AZD1152-HQPA (Barasertib)]", "assayTarget": "HeLa", "quantityKind": "cell viability", "reportedValue": 0.883}
{"molecule": "Nc1cc(C(F)(F)F)c(-c2cc(N3CCOCC3)nc(N3CCOCC3)n2)cn1 [Buparlisib (BKM-120)]", "assayTarget": "HeLa", "quantityKind": "cell viability", "reportedValue": 0.881}
{"molecule": "CO[C@@H](C(=O)N1Cc2[nH]nc(NC(=O)c3ccc(N4CCN(C)CC4)cc3)c2C1)c1ccccc1", "assayTarget": "HeLa", "quantityKind": "cell viability", "reportedValue": 0.906}
